The origin of these recorded values is ChEMBL document CHEMBL3988442.

# System: Proteasome subunit beta (Trypanosoma cruzi) (UniProt O96673)
# Sequence (O96673 as listed by the source): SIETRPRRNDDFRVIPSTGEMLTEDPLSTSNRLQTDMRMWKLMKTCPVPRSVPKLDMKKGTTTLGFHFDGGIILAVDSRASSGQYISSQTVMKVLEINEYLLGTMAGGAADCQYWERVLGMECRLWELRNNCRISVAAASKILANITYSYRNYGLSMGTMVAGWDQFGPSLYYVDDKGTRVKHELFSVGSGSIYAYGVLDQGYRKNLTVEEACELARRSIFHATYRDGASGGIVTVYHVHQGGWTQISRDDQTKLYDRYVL
# Assay Overview: Trypanosoma cruzi proteasome chymotrypsin-like activity (TcProtChymo) assay.
# Type: functional
# Parameters: scale not given: in the data most compounds retested in dose-response had high values
# Condition Details: 9.37 µM
Parameter Measured: Percent Effect (%)

compound=COc1ccc(CNC(=O)NCc2c(C)cc(C)[nH]c2=O)cc1 system="Proteasome subunit beta (Trypanosoma cruzi) (UniProt O96673)" result=6.18
compound="CC(=O)N(Cc1noc(C)n1)C1CCN(Cc2ccccc2C#N)C1 (centres undefined)" system="Proteasome subunit beta (Trypanosoma cruzi) (UniProt O96673)" result=6.17
compound="CN(C)C(C(=O)N1CCC(N2CCSCC2)CC1)c1ccccc1F (centres undefined)" system="Proteasome subunit beta (Trypanosoma cruzi) (UniProt O96673)" result=20.7
compound="Cc1ccc(CN2CCc3ncnc(C4CCOC4)c3CC2)s1 (centres undefined)" system="Proteasome subunit beta (Trypanosoma cruzi) (UniProt O96673)" result=5.98
compound=COCC(=O)N1CCN(C(=O)c2scnc2C)CC1 system="Proteasome subunit beta (Trypanosoma cruzi) (UniProt O96673)" result=12.4
compound="Cc1occc1C(=O)N1CCC2(CC1)NC(=O)CC2c1cnn(C)c1 (centres undefined)" system="Proteasome subunit beta (Trypanosoma cruzi) (UniProt O96673)" result=9.41
compound="C[S+]([O-])c1nncn1CC(=O)c1ccc2c(c1)CCO2 (centres undefined)" system="Proteasome subunit beta (Trypanosoma cruzi) (UniProt O96673)" result=12.4
compound="Cc1nnc(C2Cc3ccccc3CN2Cc2ncc(C(C)(C)C)o2)o1 (centres undefined)" system="Proteasome subunit beta (Trypanosoma cruzi) (UniProt O96673)" result=20.8
compound=Fc1ccc(CCN2CCC(c3nnc(-c4cccnc4)o3)CC2)cc1 system="Proteasome subunit beta (Trypanosoma cruzi) (UniProt O96673)" result=18.9
compound="Cc1nonc1C(=O)N1CCCC(c2ncncc2-c2ccncc2)C1 (centres undefined)" system="Proteasome subunit beta (Trypanosoma cruzi) (UniProt O96673)" result=3.08
compound="CSCC(CCO)NC(=O)Nc1cccc(Br)c1 (centres undefined)" system="Proteasome subunit beta (Trypanosoma cruzi) (UniProt O96673)" result=17.2
compound="CC1c2ncc(COc3cccnc3)n2CCN1C(=O)Cc1ccco1 (centres undefined)" system="Proteasome subunit beta (Trypanosoma cruzi) (UniProt O96673)" result=6.84
compound=O=C1[C@@H]2CCN(Cc3ccncc3)C[C@@H]2OCCN1c1ccccc1 system="Proteasome subunit beta (Trypanosoma cruzi) (UniProt O96673)" result=15.6
compound=CCn1nc(C)c2ncnc(NCC(=O)N3CCOCC3)c21 system="Proteasome subunit beta (Trypanosoma cruzi) (UniProt O96673)" result=14.4
compound="CC(C)(C)c1nc(CN2CCCC2Cn2cccn2)no1 (centres undefined)" system="Proteasome subunit beta (Trypanosoma cruzi) (UniProt O96673)" result=17.7
compound="Cc1nc(CN(C)C2CCN(Cc3nc4ccccc4s3)C2)no1 (centres undefined)" system="Proteasome subunit beta (Trypanosoma cruzi) (UniProt O96673)" result=3.81
compound="O=C(Cc1ccc2c(c1)OCCO2)N1CCCC(n2cccn2)C1 (centres undefined)" system="Proteasome subunit beta (Trypanosoma cruzi) (UniProt O96673)" result=3.15
compound=CC(C)(NCC(=O)NCC(F)(F)F)c1ccc2c(c1)OCCO2 system="Proteasome subunit beta (Trypanosoma cruzi) (UniProt O96673)" result=16
compound="O=C(c1ccc(F)c(F)c1)N1CCCC(Nc2ccc(F)cc2)C1 (centres undefined)" system="Proteasome subunit beta (Trypanosoma cruzi) (UniProt O96673)" result=2.59
compound=CN(Cc1ccsc1)C(=O)c1cccc(F)c1 system="Proteasome subunit beta (Trypanosoma cruzi) (UniProt O96673)" result=5.74
compound="Cc1cc(CN2CCN(C(=O)NC(C)Cn3ccnc3)CC2)no1 (centres undefined)" system="Proteasome subunit beta (Trypanosoma cruzi) (UniProt O96673)" result=-4.18
compound=CCN(CC)CCNC(=O)c1cc(C(C)C)nc(N2CCCC2)n1 system="Proteasome subunit beta (Trypanosoma cruzi) (UniProt O96673)" result=12.8
compound=COc1c(CNCc2ccc(C(=O)N(C)C)cc2)c(C)nn1C system="Proteasome subunit beta (Trypanosoma cruzi) (UniProt O96673)" result=8.23
compound=COc1ccccc1[C@@H]1CN(Cc2cc(C(C)(C)C)[nH]n2)C[C@H]1C(=O)O system="Proteasome subunit beta (Trypanosoma cruzi) (UniProt O96673)" result=20.2
